System: MS2 coat protein
assay summary: apparent KD of MS2 coat protein; designed switch direction (-1 OFF switch, 1 ON switch): -1; higher = weaker reporter binding
test context: Eterna round: R95; input ligand: none
Lab note: compare apparent KD of MS2 coat protein against 80 nM. Equal or greater, write Y. Smaller, write N.

CUGAGGUAGCGGUCCUAUGACAUGAGGAUCACCCAUGUACCUUGCUUUGAGCUUUUUGCUCGUCUUAUGAUUCUCGG [JL Atriat mod 6] (puzzle: Sensor v3, turn-off variant 1)    Y
AUAUAACAUGAGGAUCACCCAUGUCAGGAUAUGCAGAACAAGAACAAGACAAGACAGAGCAGAAGGGACAAUAU [Ex 1 M4] (puzzle: Exclusion 1)    N
GGAAGAAUGAGUAGUCCUCAUUGAAGAGAACAGUAAGAAACAUGAGGAUCACCCAUGUAAGAACAAGCUUUUGCUCA [JR_Sv3TOV2_Sub002] (puzzle: Sensor v3, turn-off variant 2)    Y
AAGUACCGUCACGAUAGUGAUGGUACAACAAGUGGUGAAACAUGAGGAUCACCCAUGUCCUCAAUUGCUCGUCUUAU [Sensor 3 - 85] (puzzle: Sensor v3, turn-off variant 2)    Y
GAAAAGGUAGGAUAUACGAAAAAAAAGGGUAGAAAAAAAUCACAUGAGGAUCACCCAUGUAGAAGGACCAAAAG [salish99_ex2_r3_072] (puzzle: Exclusion 2)    N
CAUGGAACGUAGGAUAUCUCGCAGCCCGACUGCAGAGAAGGACGUACAUGAGGAUCACCCAUGUAUGAUCCAAA [Vexeoren] (puzzle: Exclusion 6)    N
AUAACAAGCUUUUUUUUCGUCGUAUAUGACGCUCGAGUCACAUGAGGAUCACCCAUGUCUUCCUGUUUGAUUGUUGA [JR_SV3TOV2_Sub057] (puzzle: Sensor v3, turn-off variant 2)    Y
GAUACACAUGAGGAUCACCCAUGUGAGGAUAUGCGUACGUUGUCCGUAGGCGACGUGCGCAGAAGGCGCAAAGG [Mat - Mod of JL D97] (puzzle: Exclusion 1)    Y
AGAUGGAAGCAGGAUAUGCUUGUAUAAUUGAAAGCAGAAGGGCUAACAUGAGGAUCACCCAUGUAAGAGGUGUA [JR_E6_Sub059] (puzzle: Exclusion 6)    Y
AACUAGGCAGGAUAUACAUGAGGAUCACCCAUGUGCCGAUACAAAGGGACUAACAGAGGUAGAAGGGCCUAGAA [ChP 13.04.2015 #1] (puzzle: Exclusion 3)    N
CUGGUCCGAGGAUAUAUUAUGUGAUACAUGAGGAUCACCCAUGUUAUAUGAUGGAUGUAAAUAGAAGGCGGACUAG [JL-ex5-3.15] (puzzle: Exclusion 5)    N
AUGAGCAGACGGAGAUCCAACAUGAGGAUCACCCAUGUCUCAUAAGCUUUUUGUUCAUCUUAUUGUACCUUGGUGCU [Mat - Sensor v3 - turn-off var 1 - JL Mod - D22] (puzzle: Sensor v3, turn-off variant 1)    N
ACAAGCUUUUUGUUCGUCUUAUAAUAAUAAAUAAAUAUAACAUGAGGAUCACCCAUGUUGAGAAGACAACCUCAUGU [Sesor Array 24 - Jieux - Sensor v3, turn-off variant 2] (puzzle: Sensor v3, turn-off variant 2)    Y
AGUAACUAUCACGAAAGUGAUAGUUACAACAGGUGAUAAACAUGAGGAUCACCCAUGUCCUCAUUUGCUCGUCUUAU [Sensor 3 - 11] (puzzle: Sensor v3, turn-off variant 2)    Y
UUAAGCUUUGAGAUCCUUAACAUGAGGAUCACCCAUGUUCGUCUUAUGAUGGUCUGAUCCCUGAGGAUCGGACCGUA [Mat - Sensor v3 - turn-off var 1 - JL Mod - D4] (puzzle: Sensor v3, turn-off variant 1)    Y
AGUGCGUAUGUGAGGAUAUGCUGGUCCUUGGAUCAGCAGAAGGCACAUGAGGAUCACCCAUGUGGUGUCGUACG [salish99_Bmod_Ex4_004] (puzzle: Brourd's mod of Exclusion 4)    N
CAUUACUGCAAGCUAUGGGACAUGAGGAUCACCCAUGUUCGUCUUAUUGAUCUAGGUACGCUGACGUACCUAGAUCU [JL-sv1-2.21 Brourd mod] (puzzle: Sensor v3, turn-off variant 1)    N
AAACUCCCGGCAACCGGGAACAUGAGGAUCACCCAUGUGGCGUGACUCAUACGGGCUUUUUGUUCGUUUUAUUCACG [Xeisororer] (puzzle: Sensor v3, turn-off variant 1)    N
